Molecular target: T1, TNFR1 (Homo sapiens, UniProt P19438)
T1 chain: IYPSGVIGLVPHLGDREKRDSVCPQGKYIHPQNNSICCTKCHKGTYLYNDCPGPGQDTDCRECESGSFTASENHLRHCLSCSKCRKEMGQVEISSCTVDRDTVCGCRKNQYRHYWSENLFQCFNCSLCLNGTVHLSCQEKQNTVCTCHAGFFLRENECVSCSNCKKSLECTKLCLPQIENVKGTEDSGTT
Test: yeast display SC50
Measure: apparent Kd (screen) (pM)

Some binders with known apparent Kd (screen) results, for comparison:
Binder	apparent Kd (screen) (pM)
I49D (designed binder) MTLQELLREEALRRAEAEAFRYALELLAEKFPEQKEYLLDLAEEIESQDRSLSGVDVEDVRKFLDKEWAWVKELLAEHPAELAEVEAARAARLAELRAEVEAKVAA	12500
F31V (designed binder) MTLQELLREEALRRAEAEAFRYALELLAEKVPEQKEYLLDLAEEIESQIRSLSGVDVEDVRKFLDKEWAWVKELLAEHPAELAEVEAARAARLAELRAEVEAKVAA	653
E101F (designed binder) MTLQELLREEALRRAEAEAFRYALELLAEKFPEQKEYLLDLAEEIESQIRSLSGVDVEDVRKFLDKEWAWVKELLAEHPAELAEVEAARAARLAELRAEVFAKVAA	593
E18T (designed binder) MTLQELLREEALRRAEATAFRYALELLAEKFPEQKEYLLDLAEEIESQIRSLSGVDVEDVRKFLDKEWAWVKELLAEHPAELAEVEAARAARLAELRAEVEAKVAA	593

1 = A42S (designed binder) MTLQELLREEALRRAEAEAFRYALELLAEKFPEQKEYLLDLSEEIESQIRSLSGVDVEDVRKFLDKEWAWVKELLAEHPAELAEVEAARAARLAELRAEVEAKVAA
2 = Q48R (designed binder) MTLQELLREEALRRAEAEAFRYALELLAEKFPEQKEYLLDLAEEIESRIRSLSGVDVEDVRKFLDKEWAWVKELLAEHPAELAEVEAARAARLAELRAEVEAKVAA
3 = L26D (designed binder) MTLQELLREEALRRAEAEAFRYALEDLAEKFPEQKEYLLDLAEEIESQIRSLSGVDVEDVRKFLDKEWAWVKELLAEHPAELAEVEAARAARLAELRAEVEAKVAA
4 = E67F (designed binder) MTLQELLREEALRRAEAEAFRYALELLAEKFPEQKEYLLDLAEEIESQIRSLSGVDVEDVRKFLDKFWAWVKELLAEHPAELAEVEAARAARLAELRAEVEAKVAA
In: Returns the items ordered by apparent Kd (screen), from maximum to minimum. Please list each label once, in the requested order.
Out: 4, 2, 3, 1
(4: 12500 pM, 2: 1860 pM, 3: 956 pM, 1: 539 pM)
